System: LOC_OS03G50450-cb001
method: thermal shift delta Tm vs DMSO control; higher = stronger stabilization (binding);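 also: purified Escherichia coli-expressed rice kinase domain construct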
experimental_conditions: 12.5 µM; protein concentration 2 µM
// label = Met if thermal shift delta Tm is not less than 0.5 °C, otherwise Not met

Cc1cccc(CC(=O)N2CCc3c2ccc(-c2cn(C)c4ncnc(N)c24)c3F)n1 : Not met
CCCCOc1c(C(=O)c2c(F)cc(C)cc2F)c[nH]c2nncc1-2 : Not met
CNC(=O)c1ccc(-c2cnc3ncc(Cc4ccc5ncccc5c4)n3n2)cc1F : Not met
C#Cc1cccc(Nc2ncnc3cc4c(cc23)OCCOCCOCCO4)c1 : Met
CC(C)[C@H](CO)Nc1nc(Nc2cccc(Cl)c2)c2ncn(C(C)C)c2n1 : Met

Exam item: hey, is thermal shift delta Tm for this one >= 0.5 °C? `Nc1[nH]nc2nnc(-c3c(-c4ccccc4)nn4ccccc34)cc12`
Marked response: Met

Exam item: Next entry: `COc1cccc(-c2cc(=O)c3ccccc3o2)c1N`
Marked response: Not met

Exam item: Thanks! And `COc1ccc(-c2cc3nccn3c(Nc3ncccc3C(N)=O)n2)cc1OC` ?
Marked response: Met

Exam item: And then `O=C(Nc1cccc(C(F)(F)F)c1)c1cccc2cc(Oc3cc(CO)ncn3)ccc12` , what is it?
Marked response: Not met

###

Test system: LOC_OS04G35114-cb001
method: thermal shift delta Tm vs DMSO control; higher = stronger stabilization (binding)
experimental_conditions: 12.5 µM; protein concentration 2 µM
readout: thermal shift delta Tm (°C)
A number alone suffices; assume °C.

Exam item: # get_value(readout='thermal shift delta Tm', item= `CCn1nc(C2CCN(C(=O)CCO)CC2)nc1-c1cnc(N)c(-c2nnc(C(C)(C)C)o2)n1` )
Marked response: 4.72

Exam item: Also, `CC(C)(O)CC(=O)NCCn1ccc2ncnc(Nc3ccc(Oc4cccc(C(F)(F)F)c4)c(Cl)c3)c21` please.
Marked response: 0.12

###

List of thermal shift delta Tm values.
Tested on: LOC_OS03G12390-cb001
method: thermal shift delta Tm vs DMSO control; higher = stronger stabilization (binding)
experimental_conditions: 12.5 µM; protein concentration 2 µM
The figure you give is taken to be in °C; do not add the unit.

Example entries and their recorded answers appear below.
NC(=O)c1cnc(N[C@@H]2CCCC[C@@H]2N)nc1Nc1cccc(-n2nccn2)c1 : 1.42
O=C1CCc2c(Oc3ccc4c(c3)[C@@H]3[C@H](O4)[C@H]3c3nc4cc(C(F)(F)F)ccc4[nH]3)ccnc2N1 : 0.76
C[C@H](CN(C)C)Oc1nc(Nc2cc3cccc(Cl)c3cn2)cnc1C#N : 1.56
Cn1cc(-c2ccc3nnc(Sc4ccc5ncccc5c4)n3n2)cn1 : -0.22

Exam item: Reported thermal shift delta Tm, compound `O=C(NC[C@H](O)CO)c1ccncc1Nc1ccc(I)cc1F` : ____
Marked response: -0.04

###

Tested on: LOC_OS05G16824-cb004
method: thermal shift delta Tm vs DMSO control; higher = stronger stabilization (binding)
experimental_conditions: 12.5 µM; protein concentration 2 µM
Structures can show the parent of a compound that is named as a salt.
In this section we review reported thermal shift delta Tm values for a set of compounds.
Give a bare numeral; the unit °C is implied.

Known results for compounds:
Clc1ccc(C2(c3ccc(-c4cn[nH]c4)cc3)CCNCC2)cc1 : -0.22
O=C(Nc1cccc(Cl)c1)Nc1ncc(CCNc2ncnc3ccsc23)s1 [SNS-314 Mesylate] : 2.52

Exam item: Checklist item: thermal shift delta Tm tested on LOC_OS05G16824-cb004, entry `COc1ccc(/C=C/C(=O)C2(C(=O)/C=C/c3ccc(OC)c(OC)c3)CCCCC2)cc1OC` , value?
Marked response: -3.56

Exam item: And what about the compound `Cc1[nH]nc2ccc(-c3cncc(OC[C@@H](N)Cc4ccccc4)c3)cc12` ?
Marked response: 1.39

Exam item: Follow-up item: `COc1ccc(-c2cc3nccn3c(Nc3ncccc3C(N)=O)n2)cc1OC`
Marked response: -0.07

Exam item: Entry `CC1(COc2ccc3c(c2)ncn3-c2ccc3cccc(N4CCC(N)CC4)c3n2)COC1` please
Marked response: 11.8

Exam item: Repeat with `COc1cccc(-c2cc(=O)c3ccccc3o2)c1N`
Marked response: -2.84

Exam item: Thanks! And O=c1ccc2ccc(O)c(O)c2o1 [Daphnetin] ?
Marked response: -3.57

Exam item: Repeat with O=C1Nc2ccccc2/C1=C1/Nc2ccccc2C1=O [Indirubin]
Marked response: -2.11

Exam item: Repeat with CCCS(=O)(=O)Nc1ccc(F)c(C(=O)c2c[nH]c3ncc(-c4ccc(Cl)cc4)cc23)c1F [Vemurafenib (PLX4032, RG7204)]
Marked response: -0.4

###

Tested on: LOC_OS07G06570-cb004
method: thermal shift delta Tm vs DMSO control; higher = stronger stabilization (binding)
experimental_conditions: 12.5 µM; protein concentration 2 µM
Where a name gives a salt, the structure may show the parent alone.
Would you mind labelling by thermal shift delta Tm? At or over 0.6 °C is T, under is F.

CNc1nc(Nc2cn(C(C)(C)C#N)nc2C)ncc1C(F)(F)F : T
Cc1ccc(NC(=O)Nc2cc(C(F)(F)F)ccc2F)cc1Nc1ccc2c(c1)NC(=O)/C2=C\c1ccc[nH]1 : F
CC(C)Nc1cc(-c2c[nH]c(C(=O)N[C@H](CO)c3cccc(Cl)c3)c2)c(Cl)cn1 : T
O=c1c(-c2ccc(O)cc2)coc2cc(O)cc(O)c12 : F
CCn1c(-c2nonc2N)nc2c(C#CC(C)(C)O)ncc(OC[C@H]3CCCNC3)c21 : T
Cc1cc(O)c(-c2ccc([C@@H](C)CN)cc2)c2c1[nH]c(=O)c1sccc12 [OTS514 hydrochloride] : T
CS(=O)(=O)c1ccc(-c2cnc(N)c(C(=O)Nc3ccccc3)n2)cc1 : T
CNC(=O)c1cccc(-c2ccc3c(N4CCOC[C@@H]4C)nc(N4CCOC[C@@H]4C)nc3n2)c1 : T

Note: attention shifts to another entry.
Exam item: Could you tell me if the measured thermal shift delta Tm of `COc1cccc(-c2cc(=O)c3ccccc3o2)c1N` reaches 0.6 °C or more?
Marked response: F

###

System: LOC_OS03G27990-cb004
method: thermal shift delta Tm vs DMSO control; higher = stronger stabilization (binding)
experimental_conditions: 12.5 µM; protein concentration 2 µM
Measured thermal shift delta Tm, listed per entry.
Hi! Could you send only the number? It should be in °C, unit omitted.

A selection of reference data follows.
COc1cc2c(Oc3ccc4[nH]c(C)cc4c3F)ncnc2cc1OCCCN1CCCC1 : 0.44
CN1CCN(Cc2ccc(-c3cnc4[nH]cc(-c5ccc6[nH]ccc6c5)c4c3)cc2)CC1 : 10.8
C=C(C)[C@@H]1CC[C@]2(C)CC[C@]3(C)[C@H](CC[C@@H]4[C@@]5(C)CC[C@H](O)C(C)(C)[C@@H]5CC[C@]43C)[C@@H]12 : 0.18

Exam item: So what thermal shift delta Tm did `COc1ncc(-c2ccc3nccc(-c4ccnnc4)c3c2)cc1NS(=O)(=O)c1ccc(F)cc1F` get with LOC_OS03G27990-cb004?
Marked response: 0.69

###

Tested on: LOC_OS01G52050-cb004
Sequence (whole entry): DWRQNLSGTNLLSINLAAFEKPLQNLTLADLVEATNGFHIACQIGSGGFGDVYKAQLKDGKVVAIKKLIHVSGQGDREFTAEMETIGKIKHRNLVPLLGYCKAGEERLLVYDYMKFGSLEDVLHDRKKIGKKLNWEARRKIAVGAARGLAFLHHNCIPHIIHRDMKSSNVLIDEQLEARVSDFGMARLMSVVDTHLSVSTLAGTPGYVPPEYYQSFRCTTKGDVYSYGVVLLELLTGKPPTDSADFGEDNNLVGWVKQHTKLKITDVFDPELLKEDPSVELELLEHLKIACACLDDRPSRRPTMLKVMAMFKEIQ
method: thermal shift delta Tm vs DMSO control; higher = stronger stabilization (binding)
experimental_conditions: 12.5 µM; protein concentration 2 µM
Would you mind labelling by thermal shift delta Tm? At or over 2 °C is Fulfilled, under is Not fulfilled.

O=C1NC(=O)/C(=C/c2ccc(-c3ccc(F)cc3O)o2)S1 : Fulfilled

Exam item: Check this compound for thermal shift delta Tm at or above 2 °C: `CC1(COc2ccc3c(c2)ncn3-c2ccc3cccc(N4CCC(N)CC4)c3n2)COC1`
Marked response: Fulfilled

Exam item: Also check `Cc1cc(C(=O)NOCCO)c(Nc2ccc(I)cc2F)n(C)c1=O`
Marked response: Not fulfilled

Exam item: Now the compound `CCNC(=O)C#Cc1ccc2c(C(=Nc3ccc(CN(C)C)cc3)c3ccccc3)c(O)[nH]c2c1`
Marked response: Fulfilled

Exam item: Entry to check: `C#Cc1cccc(Nc2ncnc3cc(OCCOC)c(OCCO)cc23)c1`
Marked response: Not fulfilled

###

Tested on: LOC_OS01G48390-cb002
method: thermal shift delta Tm vs DMSO control; higher = stronger stabilization (binding)
experimental_conditions: 12.5 µM; protein concentration 2 µM
Counter-ions that a name gives are not always drawn.
# reported thermal shift delta Tm; entries follow
Enter your answer as a number in °C; do not include the unit.

Study these solved cases before continuing.
Cc1cn(-c2cc(NC(=O)c3ccc(C)c(Nc4nccc(-c5cnccn5)n4)c3)cc(C(F)(F)F)c2)cn1 : 0.73
Cc1nc2ccc(-n3ncc(C(=O)c4cc5ccccc5[nH]4)c3N)cc2[nH]1 : 1.08
C=CC(=O)N1CC[C@@H](Oc2nc(Nc3ccc(N4CCC(N5CCN(C)CC5)CC4)cc3)c(C(N)=O)nc2CC)C1 : 3.38
CC(C)Nc1cc(-c2c[nH]c(C(=O)N[C@H](CO)c3cccc(Cl)c3)c2)c(Cl)cn1 : 1.24
N[C@@H]1CCCN(c2c(/C=C3\SC(=O)NC3=O)cccc2-c2ccccc2)C1 : 0.27
Oc1c(F)cc(-c2cnccc2-c2ccc(N3CCOCC3)cc2)cc1F : 0
CCc1cccc(CC)c1NC(=O)N1Cc2[nH]nc(NC(=O)c3ccc(N4CCN(C)CC4)cc3)c2C1 : 0.01
Cc1ccc(NC(=O)c2ccc(CN3CCN(C)CC3)cc2)cc1Nc1nc(-c2cccnc2)cs1 : 0.15
O=C1NC(=O)/C(=C/c2ccc(-c3ccc(F)cc3O)o2)S1 : 3.1
Cc1c[nH]c(/C=C2\C(=O)Nc3ccccc32)c1CCC(=O)O : 1.99

Exam item: Which thermal shift delta Tm reading was recorded for the compound Cc1cc(O)c(-c2ccc([C@@H](C)CN)cc2)c2c1[nH]c(=O)c1sccc12 [OTS514 hydrochloride] ?
Marked response: 1.38

Exam item: And `N#C/C(=C(/N)Sc1ccc(N)cc1)c1ccccc1C(F)(F)F` ?
Marked response: 0.18

Exam item: Follow-up item: `C#Cc1cccc(Nc2ncnc3cc(OCCOC)c(OCCO)cc23)c1`
Marked response: 2.12

Cited source: the supplement of paper PMC9694430
